- Test Target: recombinant human MAO-A (Homo sapiens, UniProt P21397)
- Sequence (P21397 whole entry): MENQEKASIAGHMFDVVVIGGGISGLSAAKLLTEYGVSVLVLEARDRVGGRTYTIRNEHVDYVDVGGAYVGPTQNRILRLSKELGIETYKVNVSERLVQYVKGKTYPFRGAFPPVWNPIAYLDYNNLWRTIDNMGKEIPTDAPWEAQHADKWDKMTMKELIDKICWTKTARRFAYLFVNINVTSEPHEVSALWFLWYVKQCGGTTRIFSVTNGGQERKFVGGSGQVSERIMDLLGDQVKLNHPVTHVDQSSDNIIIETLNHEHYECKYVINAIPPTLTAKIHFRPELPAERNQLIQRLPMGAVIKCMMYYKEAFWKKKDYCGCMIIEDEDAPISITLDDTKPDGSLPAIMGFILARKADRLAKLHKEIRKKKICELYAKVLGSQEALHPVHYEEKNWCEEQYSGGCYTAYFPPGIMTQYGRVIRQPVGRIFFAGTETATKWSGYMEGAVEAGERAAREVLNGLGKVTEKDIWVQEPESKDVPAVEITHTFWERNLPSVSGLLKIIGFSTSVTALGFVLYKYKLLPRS
- Procedure Text: Kynuramine deamination inhibition assay, MAO-A
- Experimental Parameters: 80 μM kynuramine, pH 7.4, 37 °C
Readout: pIC50
Answers are plain numbers, as −log10 of the molar value.

**Query** Observed pIC50 on recombinant human MAO-A (Homo sapiens, UniProt P21397) for C=CC(=O)O[C@H]1CC[C@]2(C)[C@H]3CC=C4[C@@H]5CC(C)(C)CC[C@]5(C(=O)O)CC[C@@]4(C)[C@]3(C)CC[C@H]2C1(C)C [D1, Oleanolic acid acrylate] , please.
**Result** 4.31

---

- Test Target: 5-HT1A receptor (Mus musculus, UniProt Q64264)
- Construct: The hippocampi of mice were dissected and homogenized in 5 volumes of ice-cold buffer; from tissue; host or cells: mouse hippocampus membranes
- Sequence (Q64264 whole entry): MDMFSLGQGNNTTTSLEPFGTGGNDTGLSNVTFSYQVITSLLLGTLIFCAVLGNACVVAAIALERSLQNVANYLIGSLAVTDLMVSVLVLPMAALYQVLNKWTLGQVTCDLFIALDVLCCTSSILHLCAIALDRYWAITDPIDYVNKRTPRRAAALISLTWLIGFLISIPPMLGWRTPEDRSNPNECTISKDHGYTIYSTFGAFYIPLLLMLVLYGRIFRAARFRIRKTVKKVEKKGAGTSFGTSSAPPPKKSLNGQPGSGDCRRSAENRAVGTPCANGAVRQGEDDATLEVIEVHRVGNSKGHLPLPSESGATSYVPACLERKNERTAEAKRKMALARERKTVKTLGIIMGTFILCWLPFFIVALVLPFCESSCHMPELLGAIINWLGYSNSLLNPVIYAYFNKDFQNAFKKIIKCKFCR
- Procedure Text: [35S]GTPγS binding to mice hippocampal membranes
- Type: biochemical
Readout: EC50 (nM)
Give bare numbers, in nM.

**Query** Value lookup for EC50; key = CCCN(CCC)C1CCc2cccc(O)c2C1 (single isomer, unassigned; (+)) [(+) 8-OH-DPAT, 8-OH-DPAT]
**Result** 158
